Every entry's value here was drawn from the antibiotic and cytotoxicity screens of Wong et al. (2023).

Test system: HSkMC (human skeletal muscle cells)
Assay: cytotoxicity call (relative viability < 0.9)
Conditions: 10 µM
About 1,500 (3.8%) of roughly 39,000 compounds were called active. The entries come from a sample that favours actives as a whole.
Respond using exactly one of the listed classes: active, inactive

The following molecules have reported results that may help.
[[record]]
chem_smiles = "C[C@H](CO)N1C[C@H](C)[C@H](CN(C)CC2CC2)OCCCC[C@H](C)Oc2ccc(NC(=O)Nc3ccc(C(F)(F)F)cc3)cc2C1=O"
assigned_class = "inactive"

[[record]]
chem_smiles = "C[C@@H]1CCCCO[C@H](CN(C)CC2CC2)[C@H](C)CN([C@H](C)CO)C(=O)c2cc(NC(=O)Nc3ccc(C(F)(F)F)cc3)ccc2O1"
assigned_class = "active"


Look up the recorded call for COCC#Cc1ccc2c(c1)O[C@@H](CN(C)C(=O)COC)[C@@H](C)CN([C@H](C)CO)S2(=O)=O in this test.
inactive

What about this molecule? c1ccc(Cn2c(-c3ccc(OC[C@H](C4CCNCC4)n4c(-c5ccccc5)nc5ccccc54)cc3)nc3ccccc32)cc1
active

Now try C[C@@H]1CCCCO[C@@H](CN(C)CC2CC2)[C@@H](C)CN([C@H](C)CO)C(=O)c2cc(NC(=O)Nc3ccc(C(F)(F)F)cc3)ccc2O1 .
inactive

Note, next up: C[C@@H]1CCCCO[C@@H](CN(C)C(=O)Nc2cccc3ccccc23)[C@H](C)CN([C@@H](C)CO)C(=O)c2cc(NS(=O)(=O)c3ccc(Cl)cc3)ccc2O1
inactive

Now give it for C[C@@H]1CCCCO[C@@H](CN(C)C(=O)Nc2cccc3ccccc23)[C@@H](C)CN([C@H](C)CO)C(=O)c2cc(NS(=O)(=O)c3cn(C)cn3)ccc2O1 too.
inactive

// repeat for C[C@@H]1CN([C@@H](C)CO)C(=O)c2cc(NS(=O)(=O)c3cn(C)cn3)ccc2O[C@@H](C)CCCCO[C@@H]1CN(C)C(=O)Nc1cccc2ccccc12 and report
active

Another molecule: C[C@H]1CCCCO[C@H](CN(C)C(=O)Nc2cccc3ccccc23)[C@@H](C)CN([C@@H](C)CO)C(=O)c2cc(NS(=O)(=O)c3ccc(F)cc3)ccc2O1
active

Similarly, C[C@@H]1CCCCO[C@@H](CN(C)C(=O)Nc2cccc3ccccc23)[C@@H](C)CN([C@H](C)CO)C(=O)c2cc(NS(=O)(=O)c3ccc(F)cc3)ccc2O1 ?
inactive
